Measured TGI, listed per entry.
system: RPMI-8226 leukemia; test: NCI tumour cell line growth inhibition, 48 h

>  <compound>
N=C(N)SCc1ccc(Cl)cc1Cl (tested in a mixture with another compound)

>  <TGI>
12.7 µM

$$$$
>  <compound>
Brc1ccc2c([C@H]3CN[C@@H](c4c[nH]c5cc(Br)ccc45)CN3)c[nH]c2c1

>  <TGI>
7.15 µM

$$$$
>  <compound>
COCCCNC(=O)CC(=O)NCCCOC

>  <TGI>
> 100 µM

$$$$
>  <compound>
CCOC(=O)C1=C(C)N(c2ccc(C)cc2)C2=C(C(=O)N(c3ccccc3)C2c2ccccc2)C1c1ccccc1 (stereo unspecified)

>  <TGI>
> 25 µM

$$$$
>  <compound>
CCCCN1C(=O)c2c(-c3sccc3N)sc(-c3sccc3N)c2C1=O

>  <TGI>
55 µM

$$$$
>  <compound>
COc1ccc(/C=C2\N=C(c3ccccc3)N(N=C3NC(=O)CC(=O)N3)C2=O)cc1

>  <TGI>
> 100 µM

$$$$

* * *

tested on: MOLT-4 leukemia; experiment: NCI tumour cell line growth inhibition, 48 h
Non-standard residues stand in square brackets, D forms with d. Residues, ends and D or L forms follow the SMILES beside them. *: point of attachment. hSer = N[CH](CCO)C(=O)O; Boc = CC(C)(C)OC(=O)*
Measured GI50, listed per entry.

>  <compound>
O=[N+]([O-])c1c(Br)sc(Br)c1[N+](=O)[O-]

>  <GI50>
1010 nM

$$$$
>  <compound>
COc1ccc(Cn2cc3c(c2-c2ccc(OC)cc2)CCc2cnoc2-3)cc1

>  <GI50>
504 nM

$$$$
>  <compound>
COc1ccc(Nc2c3ccccc3nc3ccccc23)cc1

>  <GI50>
590 nM

$$$$
>  <compound>
Cc1cccc2c(=O)c3c(sc12)c(NCCNCCO)nc1ccccc13

>  <GI50>
1530 nM

$$$$
>  <compound>
COCCC(NC(=O)C(CC(C)C)NC(=O)OC(C)(C)C)C(=O)OC (stereo not drawn) (Boc-Leu-[hSer](Me)-OMe; configuration not given here)

>  <GI50>
26 µg/mL

$$$$
>  <compound>
COc1cc(C2=C(C#Cc3ccccc3)COC2=O)cc(OC)c1OC

>  <GI50>
30100 nM

$$$$
>  <compound>
COc1ccc(-c2nc3ccccn3c2/C=C/C(=O)c2cc(OC)c(OC)c(OC)c2)cc1

>  <GI50>
32900 nM

$$$$

* * *

Measured TGI, listed per entry.
system: HT29 colon; assay: NCI tumour cell line growth inhibition, 48 h

>  <molecule>
CO/N=C(\C)COc1ccc2c(=O)c(-c3ccccc3)coc2c1

>  <targetUnderTest>
HT29 colon

>  <TGI>
> 100 µM

$$$$
>  <molecule>
CNC(=O)N(C)COC

>  <targetUnderTest>
HT29 colon

>  <TGI>
> 100 µM

$$$$
>  <molecule>
c1ccc2c(c1)ncn2C1CCCCO1 (stereo not drawn)

>  <targetUnderTest>
HT29 colon

>  <TGI>
> 100 µM

$$$$

* * *

system: NCI-H226 lung; assay: NCI tumour cell line growth inhibition, 48 h

>  <compound>
O=C(O)c1cn2c3c(cc(N4CCN(CCO)CC4)cc3c1=O)SCC2

>  <targetUnderTest>
NCI-H226 lung

>  <TGI>
> 100 µM

$$$$
>  <compound>
c1cc(CNCCN2CCNCC2)ccn1

>  <targetUnderTest>
NCI-H226 lung

>  <TGI>
> 100 µM

$$$$
>  <compound>
Fc1ccccc1C1CC(c2ccc3ccccc3c2)=Nc2ccccc2S1 (stereo not drawn)

>  <targetUnderTest>
NCI-H226 lung

>  <TGI>
> 100 µM

$$$$
>  <compound>
CCCCCCCCCCCCOP(=O)(O)OCC(N)C(=O)O (stereo not drawn)

>  <targetUnderTest>
NCI-H226 lung

>  <TGI>
> 100 µM

$$$$
>  <compound>
C1CCN(c2nc(=[N+]3CCCCC3)ss2)CC1

>  <targetUnderTest>
NCI-H226 lung

>  <TGI>
> 100 µM

$$$$
>  <compound>
CCOC(=O)NC(NC1=NCCS1)(C(=O)OCC)C(F)(F)F (stereo not drawn)

>  <targetUnderTest>
NCI-H226 lung

>  <TGI>
> 100 µM

$$$$
>  <compound>
O=C1c2ccccc2C(=O)c2c1ccc(C1C(=O)c3ccccc3C1=O)c2-c1c(C2C(=O)c3ccccc3C2=O)ccc2c1C(=O)c1ccccc1C2=O

>  <targetUnderTest>
NCI-H226 lung

>  <TGI>
> 100 µM

$$$$
>  <compound>
O=C1/C(=C/c2ccc(Cl)cc2)N=C(c2ccccc2)N1CCc1cccs1

>  <targetUnderTest>
NCI-H226 lung

>  <TGI>
> 100 µM

$$$$
>  <compound>
O=C(Nc1nc2ncn(CCNCc3ccccc3)c2c(=O)[nH]1)c1ccccc1

>  <targetUnderTest>
NCI-H226 lung

>  <TGI>
> 100 µM

$$$$
>  <compound>
COc1cc(OC)c(/C=C/c2cnc3ccccc3n2)c(OC)c1

>  <targetUnderTest>
NCI-H226 lung

>  <TGI>
> 10 µM

$$$$
>  <compound>
COc1ccc(OC)c(CC2CCc3nc(N)nc(N)c3C2)c1 (stereo not drawn)

>  <targetUnderTest>
NCI-H226 lung

>  <TGI>
> 49.4 µM

$$$$
>  <compound>
Cc1cc(C)c2c(n1)S(=O)(=O)N(CCCN1CCN(c3cccc(C(F)(F)F)c3)CC1)c1c-2nn(C)c1C

>  <targetUnderTest>
NCI-H226 lung

>  <TGI>
> 100 µM

$$$$
>  <compound>
CCOC(=O)C1=C(C)N(c2ccc(C)cc2)C2=C(C(=O)N(c3ccccc3)C2c2ccccc2)C1c1ccccc1 (stereo not drawn)

>  <targetUnderTest>
NCI-H226 lung

>  <TGI>
> 25 µM

$$$$
>  <compound>
CC(C)C1=CCC2C(=C1)CCC1C(C)(C(=O)O)CCCC21C (stereo not drawn) (tested in a mixture with another compound)

>  <targetUnderTest>
NCI-H226 lung

>  <TGI>
> 100 µM

$$$$
>  <compound>
O=C/C=C/c1ccco1

>  <targetUnderTest>
NCI-H226 lung

>  <TGI>
> 100 µM

$$$$
>  <compound>
CCn1cc(C(=O)O)c(=O)c2cc3c(cc21)S(=O)(=O)CC3

>  <targetUnderTest>
NCI-H226 lung

>  <TGI>
> 100 µM

$$$$
>  <compound>
NC(=O)c1cc(-c2ccc(F)cc2)cc(-c2ccncc2)c1N

>  <targetUnderTest>
NCI-H226 lung

>  <TGI>
> 25 µM

$$$$
>  <compound>
N=c1c2c(-c3ccccc3)c[nH]c2ncn1N

>  <targetUnderTest>
NCI-H226 lung

>  <TGI>
> 100 µM

$$$$

* * *

test system: HOP-62 NSCLC; test: NCI tumour cell line growth inhibition, 48 h
Measured TGI, listed per entry.

>  <compound>
COc1cc(Nc2ccnc(NCCCNc3ccnc4cc(Cl)ccc34)n2)cc(OC)c1

>  <targetUnderTest>
HOP-62 NSCLC

>  <valueComparator>
=

>  <TGI (µM)>
5.12

$$$$
>  <compound>
CN1CCC(CN2c3ccccc3Sc3ccccc32)CC1

>  <targetUnderTest>
HOP-62 NSCLC

>  <valueComparator>
=

>  <TGI (µM)>
32.2

$$$$
>  <compound>
O=[N+]([O-])c1c(Br)sc(Br)c1[N+](=O)[O-]

>  <targetUnderTest>
HOP-62 NSCLC

>  <valueComparator>
=

>  <TGI (µM)>
11.3

$$$$
>  <compound>
CCCCCCCCCCCCCC[S+](C)C

>  <targetUnderTest>
HOP-62 NSCLC

>  <valueComparator>
=

>  <TGI (µM)>
3.87

$$$$
>  <compound>
COc1ccc(-c2nc3ccccn3c2/C=C/C(=O)c2cc(OC)c(OC)c(OC)c2)cc1

>  <targetUnderTest>
HOP-62 NSCLC

>  <valueComparator>
>

>  <TGI (µM)>
100

$$$$

* * *

system: MDA-MB-435; assay: NCI tumour cell line growth inhibition, 48 h
Measured TGI, listed per entry.

>  <compound>
CCOC(=O)C(Cl)(NC(=O)c1c(F)c(F)c(F)c(F)c1F)C(F)(F)F (centres undefined)

>  <TGI>
> 100 µM

$$$$
>  <compound>
CSc1ccc(NC(=S)NN(C)C)cc1

>  <TGI>
> 10 µM

$$$$
>  <compound>
Cc1ccc(-n2[nH]nc(C#N)c2=O)cc1

>  <TGI>
> 100 µM

$$$$
>  <compound>
CCOc1ccc(/C=N/[N+](C)(C)C)cc1OCC

>  <TGI>
> 10 µM

$$$$

* * *

tested on: MDA-N; experiment: NCI tumour cell line growth inhibition, 48 h
Measured TGI, listed per entry.
experimentalReadout: TGI

>  <compound>
CC(=O)N(O)[C@@H]1CC[C@H](n2cnc3c(N)ncnc32)C1

>  <targetUnderTest>
MDA-N

>  <val>
> 100 µM

$$$$
>  <compound>
O=C/C=C/c1ccco1

>  <targetUnderTest>
MDA-N

>  <val>
> 100 µM

$$$$
>  <compound>
CCCCCCOP(=O)(OCCCCCC)C(NC(=O)OCC)(C(F)(F)F)C(F)(F)F

>  <targetUnderTest>
MDA-N

>  <val>
> 100 µM

$$$$
>  <compound>
O=C1/C(=C/c2ccccc2O)N=C(c2ccccc2)N1c1nc2ccccc2s1

>  <targetUnderTest>
MDA-N

>  <val>
8.55 µM

$$$$
>  <compound>
Cc1cc(C)c2c(n1)S(=O)(=O)N(CCCN1CCN(c3cccc(C(F)(F)F)c3)CC1)c1c-2nn(C)c1C

>  <targetUnderTest>
MDA-N

>  <val>
> 100 µM

$$$$
>  <compound>
O=C1/C(=C/c2cccc(Br)c2)CSC/C1=C\c1cccc(Br)c1

>  <targetUnderTest>
MDA-N

>  <val>
6.98 µM

$$$$
>  <compound>
CN1C(=O)[C@@H]2[C@@H]3c4ccccc4N(S(=O)(=O)C(F)(F)F)[C@@H]3c3[nH]c4ccccc4c3[C@@H]2C1=O

>  <targetUnderTest>
MDA-N

>  <val>
> 100 µM

$$$$
>  <compound>
C/C(=C/C(=O)Nn1c(Cc2ccccc2)n[nH]c1=O)C(=O)O

>  <targetUnderTest>
MDA-N

>  <val>
> 100 µM

$$$$
>  <compound>
O=c1[nH]c(=O)n(C2CC(O)C(CO)O2)cc1C1=NC1 (stereo not given)

>  <targetUnderTest>
MDA-N

>  <val>
> 100 µM

$$$$
>  <compound>
CCOC(=O)C(Cl)(NC(=O)c1c(F)c(F)c(F)c(F)c1F)C(F)(F)F (stereo not given)

>  <targetUnderTest>
MDA-N

>  <val>
> 100 µM

$$$$
